method-notes: Acute toxicity (DL50)
measurement-parameters: mouse, in vivo
// NB: equality with 60 mg/kg counts as Condition not met; only LD50 strictly below is Condition met

Solved entries:
structure-smiles	cat
CSCC[C@H](NC(=O)N(CCCl)N=O)C(=O)NCCCl	Condition met
O=NN(CCCl)C(=O)N[C@@H](CC(=O)NCCCl)C(=O)NCCCl	Condition not met
C[C@H](NC(=O)N(CCCl)N=O)C(=O)NCCCl	Condition met
CC(C)C[C@H](NC(=O)N(CCCl)N=O)C(=O)NCCCl	Condition not met

Task: Would you kindly verify if LD50 of O=NN(CCCl)C(=O)NCCCC[C@H](NC(=O)N(CCCl)N=O)C(=O)NCCCl is strictly less than 60 mg/kg?
Result: Condition not met
